test system: 485176-168-R4-J1-PDC spheroids with HUVEC/MSC, viability; test: Anticancer human tumor 485176-168-R4-J1-PDC patient-derived pancreatic adenocarcinoma cell line growth inhibition [GQUAD]; conditions: second compound 0.0316 µM; first compound 1 µM; hits give low values
Measurement type: viability, T/C (%)
Just the number in %, nothing appended.

# count of solved cases: 5
- O=c1[nH]cc(F)c(=O)[nH]1 + Cc1cnc(CNC(=O)c2c(=O)c3ccc(N4CCCN(C)CC4)nc3n3c2sc2ccccc23)cn1: 45.9
- O=c1[nH]cc(F)c(=O)[nH]1 + CN(C)c1ccc(Nc2c3ccc(NC(=O)CCN4CCCC4)cc3nc3cc(NC(=O)CCN4CCCC4)ccc23)cc1: 61.8
- O=C(c1cc(Cc2n[nH]c(=O)c3ccccc23)ccc1F)N1CCN(C(=O)C2CC2)CC1 + Cc1cnc(CNC(=O)c2c(=O)c3ccc(N4CCCN(C)CC4)nc3n3c2sc2ccccc23)cn1: 71
- COc1cc(C2c3cc4c(cc3C(OC3OC5COC(C)OC5C(O)C3O)C3COC(=O)C23)OCO4)cc(OC)c1O (stereo unspecified) + Cc1[nH]c2ccc(F)cc2c1-c1nc2c3cccnc3c3ncccc3c2[nH]1: 43
- COc1ncnc(C2CC2)c1-c1ncc2cnn(Cc3ccc(-c4nc(C(F)(F)F)cn4C(C)C)cc3)c2n1 + CN(C)c1ccc(Nc2c3ccc(NC(=O)CCN4CCCC4)cc3nc3cc(NC(=O)CCN4CCCC4)ccc23)cc1: 107

With those in mind, consider the next compound.
CCCS(=O)(=O)Nc1ccc(F)c(C(=O)c2c[nH]c3ncc(-c4ccc(Cl)cc4)cc23)c1F + Cc1[nH]c2ccc(F)cc2c1-c1nc2c3cccnc3c3ncccc3c2[nH]1 has a reported viability, T/C of 94.8

###

System: 485176-168-R4-J1-PDC spheroids with HUVEC/MSC, viability
Assay: Anticancer human tumor 485176-168-R4-J1-PDC cell line growth inhibition [GQUAD];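 note: spheroids exposed to compounds for seven days before readout; percent viability relative to DMSO vehicle control wells as 100%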
Details: second compound 0.1 µM; first compound 0.0316 µM; hits give low values
Excerpt: DNA G-quadruplex Stabilizer Agents in Combinations in Complex Spheroids A high-throughput screen of multi-cell type tumor spheroids was designed to identify active combinations of DNA G-quadruplex stabilizer agents and targeted small molecules. […] Compounds. […] If the clinical Cmax for an agent had not been determined, the highest concentration tested was 10 microM. […]
Returns the class for an entry based on its viability, T/C. Class ranges: small value (below 70%), mid value (70% to below 90%), large value (90% or more)

Worked cases, answers included:
- CC[C@@]1(O)C(=O)OCc2c1cc1n(c2=O)Cc2cc3c(CN(C)C)c(O)ccc3nc2-1 + Cc1cnc(CNC(=O)c2c(=O)c3ccc(N4CCCN(C)CC4)nc3n3c2sc2ccccc23)cn1: small value
- O=c1[nH]cc(F)c(=O)[nH]1 + Cc1[nH]c2ccc(F)cc2c1-c1nc2c3cccnc3c3ncccc3c2[nH]1: mid value
- CCc1c2c(nc3ccc(O)cc13)-c1cc3c(c(=O)n1C2)COC(=O)[C@]3(O)CC + Cc1cnc(CNC(=O)c2c(=O)c3ccc(N4CCCN(C)CC4)nc3n3c2sc2ccccc23)cn1: small value
- COc1cccc2c1C(=O)c1c(O)c3c(c(O)c1C2=O)CC(O)(C(=O)CO)CC3OC1CC(N)C(O)C(C)O1 (stereo unspecified) + Cc1[nH]c2ccc(F)cc2c1-c1nc2c3cccnc3c3ncccc3c2[nH]1: large value
- CC(C)(O)C1CCC(Nc2ccc3ncc(-c4cccc(C(F)(F)F)c4)n3n2)CC1 (stereo unspecified) + Cc1[nH]c2ccc(F)cc2c1-c1nc2c3cccnc3c3ncccc3c2[nH]1: large value
- COc1ncnc(C2CC2)c1-c1ncc2cnn(Cc3ccc(-c4nc(C(F)(F)F)cn4C(C)C)cc3)c2n1 + CN(C)c1ccc(Nc2c3ccc(NC(=O)CCN4CCCC4)cc3nc3cc(NC(=O)CCN4CCCC4)ccc23)cc1: large value
- CC1COCCN1c1cc(C2(O)CC3CCC(C2)O3)c2cnn(-c3ccn[nH]3)c2n1 (stereo unspecified) + CN(C)c1ccc(Nc2c3ccc(NC(=O)CCN4CCCC4)cc3nc3cc(NC(=O)CCN4CCCC4)ccc23)cc1: small value
- CC(C)n1c(=O)n(C)c2cnc3cc(F)c(-c4ccc(OCCCN5CCCCC5)nc4)cc3c21 + Cc1[nH]c2ccc(F)cc2c1-c1nc2c3cccnc3c3ncccc3c2[nH]1: mid value
- C=CC(=O)N1CCN(c2nc(=O)n(-c3c(C)ccnc3C(C)C)c3nc(-c4c(O)cccc4F)c(F)cc23)C(C)C1 (stereo unspecified) + Cc1cnc(CNC(=O)c2c(=O)c3ccc(N4CCCN(C)CC4)nc3n3c2sc2ccccc23)cn1: small value
- CC(C)n1c(=O)n(C)c2cnc3cc(F)c(-c4ccc(OCCCN5CCCCC5)nc4)cc3c21 + Cc1cnc(CNC(=O)c2c(=O)c3ccc(N4CCCN(C)CC4)nc3n3c2sc2ccccc23)cn1: small value

Field: class (viability, T/C) — entry: CC(C)(O)C1CCC(Nc2ccc3ncc(-c4cccc(C(F)(F)F)c4)n3n2)CC1 (stereo unspecified) + CN(C)c1ccc(Nc2c3ccc(NC(=O)CCN4CCCC4)cc3nc3cc(NC(=O)CCN4CCCC4)ccc23)cc1
mid value

###

tested on: 485176-168-R4-J1-PDC spheroids with HUVEC/MSC, viability; test: Anticancer human tumor 485176-168-R4-J1-PDC cell line growth inhibition [GQUAD]; details: second compound 0.316 µM; first compound 1 µM; hits give low values;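 note: spheroids exposed to compounds for seven days before readout; percent viability relative to DMSO vehicle control wells as 100%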
Classification field. Basis: viability, T/C. Definitions: bin 1 = under 60%, bin 2 = from 60% up to 90%, bin 3 = 90% and over

* COc1ccc([C@@H](O)c2cc(-c3ncnc4cc(N5CCOCC5)ccc34)c(F)cc2Cl)nn1 + Cc1[nH]c2ccc(F)cc2c1-c1nc2c3cccnc3c3ncccc3c2[nH]1 | bin 2

Into which bin does this molecule go? CC1COCCN1c1cc(C2(S(C)(=N)=O)CC2)nc(-c2ccnc3[nH]ccc23)n1 (stereo unspecified) + Cc1[nH]c2ccc(F)cc2c1-c1nc2c3cccnc3c3ncccc3c2[nH]1
bin 2

Bin this entry: C#Cc1c(F)ccc2cc(O)cc(-c3ncc4c(N5CC6CCC(C5)N6)nc(OCC56CCCN5CC(F)C6)nc4c3F)c12 (stereo unspecified) + CN(C)c1ccc(Nc2c3ccc(NC(=O)CCN4CCCC4)cc3nc3cc(NC(=O)CCN4CCCC4)ccc23)cc1
bin 3

Please classify: Nc1ccn(C2OC(CO)C(O)C2(F)F)c(=O)n1 (stereo unspecified) + Cc1cnc(CNC(=O)c2c(=O)c3ccc(N4CCCN(C)CC4)nc3n3c2sc2ccccc23)cn1
bin 1

###

viability, T/C values, listed per item
test system: 485176-168-R4-J1-PDC spheroids with HUVEC/MSC, viability; assay: Anticancer human tumor 485176-168-R4-J1-PDC cell line growth inhibition [GQUAD]; details: second compound 3.16 µM; first compound 1 µM; hits give low values;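 note: spheroids exposed to compounds for seven days before readout; percent viability relative to DMSO vehicle control wells as 100%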

The following molecules have reported results that may help.
• CCCS(=O)(=O)Nc1ccc(F)c(C(=O)c2c[nH]c3ncc(-c4ccc(Cl)cc4)cc23)c1F + Cc1cnc(CNC(=O)c2c(=O)c3ccc(N4CCCN(C)CC4)nc3n3c2sc2ccccc23)cn1 = 44.3%
• C#Cc1c(F)ccc2cc(O)cc(-c3ncc4c(N5CC6CCC(C5)N6)nc(OCC56CCCN5CC(F)C6)nc4c3F)c12 (stereo not drawn) + Cc1cnc(CNC(=O)c2c(=O)c3ccc(N4CCCN(C)CC4)nc3n3c2sc2ccccc23)cn1 = 38.1%

Proceed to the following item.
molecule COc1cc(C2c3cc4c(cc3C(OC3OC5COC(C)OC5C(O)C3O)C3COC(=O)C23)OCO4)cc(OC)c1O (stereo not drawn) + Cc1[nH]c2ccc(F)cc2c1-c1nc2c3cccnc3c3ncccc3c2[nH]1 , viability, T/C observed: 42.8%

###

tested on: 485176-168-R4-J1-PDC spheroids with HUVEC/MSC, viability; assay: Anticancer human tumor 485176-168-R4-J1-PDC cell line growth inhibition [GQUAD]; details: second compound 0.1 µM; first compound 10 µM; active = viability on the fitted dose curve at most 10% of control; inactive = the rest;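 note: spheroids exposed to compounds for seven days before readout; percent viability relative to DMSO vehicle control wells as 100%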
Assign a class; possible classes are 1 (active), -1 (inactive)

* O=C(c1cc(Cc2n[nH]c(=O)c3ccccc23)ccc1F)N1CCN(C(=O)C2CC2)CC1 + Cc1[nH]c2ccc(F)cc2c1-c1nc2c3cccnc3c3ncccc3c2[nH]1 | -1

Outcome? CC(=O)O[C@H]1C(=O)[C@@]2(C)[C@H]([C@H](OC(=O)c3ccccc3)[C@]3(O)C[C@H](OC(=O)[C@H](O)[C@@H](NC(=O)c4ccccc4)c4ccccc4)C(C)=C1C3(C)C)[C@]1(OC(C)=O)CO[C@@H]1C[C@@H]2O + Cc1cnc(CNC(=O)c2c(=O)c3ccc(N4CCCN(C)CC4)nc3n3c2sc2ccccc23)cn1
-1

Recorded test call requested for CC1COCCN1c1cc(-c2ccnn2C)c2ccnc(-c3ccn[nH]3)c2n1 (stereo not drawn) + CN(C)c1ccc(Nc2c3ccc(NC(=O)CCN4CCCC4)cc3nc3cc(NC(=O)CCN4CCCC4)ccc23)cc1
1
